Target: glucosylceramide synthase (GCS) (Homo sapiens, UniProt Q16739)
Construct: The obtained supernatant was used
Sequence (Q16739 whole entry): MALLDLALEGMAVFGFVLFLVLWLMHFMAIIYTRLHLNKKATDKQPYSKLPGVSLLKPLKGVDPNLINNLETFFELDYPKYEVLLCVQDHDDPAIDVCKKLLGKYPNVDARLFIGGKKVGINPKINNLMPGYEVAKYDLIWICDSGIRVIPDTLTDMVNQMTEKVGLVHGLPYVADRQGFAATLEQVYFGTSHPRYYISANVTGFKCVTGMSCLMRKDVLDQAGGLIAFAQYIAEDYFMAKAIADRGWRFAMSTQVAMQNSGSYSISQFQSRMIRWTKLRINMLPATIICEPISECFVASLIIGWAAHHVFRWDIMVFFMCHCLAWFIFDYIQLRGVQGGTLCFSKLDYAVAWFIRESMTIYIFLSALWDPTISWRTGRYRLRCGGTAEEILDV
Experiment: GCS enzyme inhibition assay (A549 cell lysate, NBD C6-ceramide, HPLC fluorescence)
Conditions: inhibitory activity against GCS, 37° C., 90 minutes
just bin them by IC50: low: < 1 nM; mid: ≥ 1 nM and < 2 nM; high: ≥ 2 nM

IN: Assign a category based on measured IC50 for COCCOc1cccc(-c2ccc3c(c2)OCC(C)(C)C3NC(=O)O[C@@H]2CN3CCC2CC3)c1 (stereo partly shown) and give only the class name.
OUT: mid

IN: Also O=C(NC1CCOc2ccc(-c3cccc(Cl)c3)cc21)O[C@@H]1CN2CCC1CC2 (stereo partly shown) , if possible.
OUT: high

IN: Also COCOc1ccccc1-c1ccc2c(c1)OCCC2NC(=O)O[C@@H]1CN2CCC1CC2 (stereo partly shown) , if possible.
OUT: high

IN: Also O=C(NC1CCOc2cc(-c3ccc4c(c3)OC(F)(F)O4)ccc21)O[C@@H]1CN2CCC1CC2 (stereo partly shown) , if possible.
OUT: mid

IN: Also COc1ccc(-c2ccc3c(c2)OCC(C)(C)C3NC(=O)O[C@@H]2CN3CCC2CC3)c(C)c1 (stereo partly shown) , if possible.
OUT: mid

IN: Also COc1cc2c(cc1-c1cc(C)c(OC)c(C)c1)OCC(C)(C)C2NC(=O)O[C@@H]1CN2CCC1CC2 (stereo partly shown) , if possible.
OUT: mid

IN: Also CC1(C)COc2cc(-c3ccc(Cl)c(Cl)c3)ccc2C1NC(=O)O[C@@H]1CN2CCC1CC2 (stereo partly shown) , if possible.
OUT: mid

IN: Also COc1ccc(Cl)c(-c2cc3c(cc2F)C(NC(=O)O[C@@H]2CN4CCC2CC4)C(C)(C)CO3)c1 (stereo partly shown) , if possible.
OUT: low

IN: Also Cc1cncc(-c2ccc3c(c2)OCC(C)(C)C3NC(=O)O[C@@H]2CN3CCC2CC3)c1 (stereo partly shown) , if possible.
OUT: low

IN: Also COc1cccc(OC)c1-c1ccc2c(c1)OCCC2NC(=O)O[C@@H]1CN2CCC1CC2 (stereo partly shown) , if possible.
OUT: high

IN: Also CC1(C)COc2cc(-c3cccc(S(=O)(=O)N4CCCC4)c3)ccc2C1NC(=O)O[C@@H]1CN2CCC1CC2 (stereo partly shown) , if possible.
OUT: low

IN: Also COc1cccc(-c2ccc3c(c2)OCCC3(C)NC(=O)O[C@@H]2CN3CCC2CC3)c1 (stereo partly shown) , if possible.
OUT: low

IN: Also CC1(NC(=O)O[C@@H]2CN3CCC2CC3)CCOc2cc(-c3ccc4c(c3)OC(F)(F)O4)ccc21 (stereo partly shown) , if possible.
OUT: mid

IN: Also CC1(C)COc2cc(-c3cccc(C(F)F)c3)ccc2C1NC(=O)O[C@@H]1CN2CCC1CC2 (stereo partly shown) , if possible.
OUT: low

IN: Also O=C(NC1CCOc2cc(-c3cnc4ccccc4c3)ccc21)O[C@@H]1CN2CCC1CC2 (stereo partly shown) , if possible.
OUT: high

IN: Also CC1(C)COc2cc(-c3ccc(F)cc3)ccc2C1NC(=O)O[C@@H]1CN2CCC1CC2 (stereo partly shown) , if possible.
OUT: low

IN: Also O=C(NC1CCOc2ccc(-c3cccc(OC(F)(F)F)c3)cc21)O[C@@H]1CN2CCC1CC2 (stereo partly shown) , if possible.
OUT: high

IN: Also COc1ccc(-c2ccc3c(c2)OCC(C)(C)C3NC(=O)O[C@@H]2CN3CCC2CC3)cc1Cl (stereo partly shown) , if possible.
OUT: mid

IN: Also CCOc1ccc(-c2ccc3c(c2)OCC(C)(C)C3NC(=O)O[C@@H]2CN3CCC2CC3)cn1 (stereo partly shown) , if possible.
OUT: low

IN: Also COc1cc2c(cc1-c1ccc(OC(C)C)c(Cl)c1)OCC(C)(C)C2NC(=O)O[C@@H]1CN2CCC1CC2 (stereo partly shown) , if possible.
OUT: low

IN: Also COc1cccc(-c2ccc3c(c2)OCC(C)(C)C3NC(=O)O[C@@H]2CN3CCC2CC3)n1 (stereo partly shown) , if possible.
OUT: low

IN: Also CC1(C)COc2cc(-c3cncc4ccccc34)ccc2C1NC(=O)O[C@@H]1CN2CCC1CC2 (stereo partly shown) [Example 192] , if possible.
OUT: low

IN: Also N#Cc1cccc(-c2ccc3c(c2)OCCC3NC(=O)O[C@@H]2CN3CCC2CC3)c1 (stereo partly shown) , if possible.
OUT: mid

IN: Also O=C(NC1CCOc2cc(-c3ccc(N4CCOCC4)c(Cl)c3)ccc21)O[C@@H]1CN2CCC1CC2 (stereo partly shown) , if possible.
OUT: mid

IN: Also CC1(C)COc2cc(-c3cccc4ncccc34)ccc2C1NC(=O)O[C@@H]1CN2CCC1CC2 (stereo partly shown) , if possible.
OUT: high

----------
System: GM1 production in Jurkat cells
Test: cells
Assay type: cell-based
Conditions: Homo sapiens, Jurkat, 72 h
Binary label based on IC50 with cut-off 6 nM: below gives True, not below gives False.

IN: Please determine if O=C(NC1CCOc2cc(-c3ccccc3F)ccc21)O[C@@H]1CN2CCC1CC2 (stereo partly shown) [Example 9] is below 6 nM in terms of IC50.
OUT: True

IN: Also CC1(C)COc2cc(-c3cc(F)cc(F)c3)ccc2C1NC(=O)O[C@@H]1CN2CCC1CC2 (stereo partly shown) [Example 240] , if possible.
OUT: True

IN: Also COc1ncc(-c2ccc3c(c2)OCC(C)(C)C3NC(=O)O[C@@H]2CN3CCC2CC3)cc1C (stereo partly shown) [Example 254] , if possible.
OUT: False

IN: Also CC1(C)COc2cc(-c3cccc4[nH]ncc34)ccc2C1NC(=O)O[C@@H]1CN2CCC1CC2 (stereo partly shown) [Example 212] , if possible.
OUT: True

IN: Also CC1(NC(=O)O[C@@H]2CN3CCC2CC3)CCOc2cc(-c3cccc(OC(F)(F)F)c3)ccc21 (stereo partly shown) [Example 306] , if possible.
OUT: True

IN: Also CC1(C)CC(NC(=O)O[C@@H]2CN3CCC2CC3)c2ccc(-c3cccc(C(F)(F)F)c3)cc2O1 (stereo partly shown) [Example 295] , if possible.
OUT: False

IN: Also COc1cncc(-c2ccc3c(c2)OCC(C)(C)C3NC(=O)O[C@@H]2CN3CCC2CC3)c1 (stereo partly shown) [Example 207] , if possible.
OUT: True

IN: Also O=C(NC1CCOc2cc(-c3ccc4ccncc4c3)ccc21)O[C@@H]1CN2CCC1CC2 (stereo partly shown) [Example 57] , if possible.
OUT: False

IN: Also COCOc1cccc(-c2ccc3c(c2)SCCC3NC(=O)O[C@@H]2CN3CCC2CC3)c1 (stereo partly shown) [Example 321] , if possible.
OUT: True

IN: Also CC(C)(C)OCc1ccc(-c2ccc3c(c2)OCC(C)(C)C3NC(=O)O[C@@H]2CN3CCC2CC3)cc1 (stereo partly shown) [Example 141] , if possible.
OUT: True

IN: Also CC1(C)COc2cc(-c3cccc4cn[nH]c34)ccc2C1NC(=O)O[C@@H]1CN2CCC1CC2 (stereo partly shown) [Example 178] , if possible.
OUT: True

IN: Also CCOc1ccc(-c2ccc3c(c2)OCCC3NC(=O)O[C@@H]2CN3CCC2CC3)cc1 (stereo partly shown) [Example 22] , if possible.
OUT: False

IN: Also Cn1ncc2ccc(-c3ccc4c(c3)OCCC4NC(=O)O[C@@H]3CN4CCC3CC4)cc21 (stereo partly shown) [Example 50] , if possible.
OUT: False

IN: Also COc1cccc(-c2ccc3c(c2)OCC(C)(C)C3NC(=O)O[C@@H]2CN3CCC2CC3)c1Cl (stereo partly shown) [Example 176] , if possible.
OUT: True

IN: Also Cc1cc(F)ccc1-c1ccc2c(c1)OCC(C)(C)C2NC(=O)O[C@@H]1CN2CCC1CC2 (stereo partly shown) [Example 227] , if possible.
OUT: True

----------
Tested on: GM1 production in Jurkat cells
Assay: cells
Type: cell-based
Conditions: Homo sapiens, Jurkat, 72 h
recorded-metric: pIC50
// pIC50: -log10(molar conc.)

IN: Requested read-out: pIC50. Entry: O=C(NC1CCOc2cc(-c3cccc(F)c3)ccc21)O[C@@H]1CN2CCC1CC2 (some centres unmarked)
OUT: 8.77

IN: Also COc1cc(-c2ccc3c(c2)OCC(C)(C)C3NC(=O)O[C@@H]2CN3CCC2CC3)ccc1Cl (some centres unmarked) , if possible.
OUT: 8.01

IN: Also C=Cc1ccc(-c2ccc3c(c2)OCC(C)(C)C3NC(=O)O[C@@H]2CN3CCC2CC3)cc1 (some centres unmarked) , if possible.
OUT: 8.36

IN: Also CC1(C)COc2cc(-c3ccccc3OC(F)(F)F)ccc2C1NC(=O)O[C@@H]1CN2CCC1CC2 (some centres unmarked) , if possible.
OUT: 9.92

IN: Also O=C(NC1CCOc2ccc(-c3ccccc3F)cc21)O[C@@H]1CN2CCC1CC2 (some centres unmarked) , if possible.
OUT: 7.01

IN: Also Cc1cc(-c2ccc3c(c2)OCC(C)(C)C3NC(=O)O[C@@H]2CN3CCC2CC3)cc(C)c1OC(C)C (some centres unmarked) , if possible.
OUT: 8.40

IN: Also COc1cc2c(cc1-c1ccc(OCC(C)C)cc1)OCC(C)(C)C2NC(=O)O[C@@H]1CN2CCC1CC2 (some centres unmarked) , if possible.
OUT: 9.15

IN: Also CCOc1ccc(-c2cc3c(cc2OC)C(NC(=O)O[C@@H]2CN4CCC2CC4)C(C)(C)CO3)cc1 (some centres unmarked) , if possible.
OUT: 8.47
